biological target: androgen receptor (Homo sapiens, UniProt P10275, T878A); construct: Several compounds were selected and serial diluted (10×) with RPMI medium for treating LNCaP.FGC cells; host or cells: LNCaP.FGC; test: Androgen receptor degradation assay using Western blot analysis in LNCaP.FGC cells; type: cell-based; settings: read-out: AR DC50, concentration needed for 50% AR degradation, 24 hr treatment
Sequence (P10275 whole entry T878A): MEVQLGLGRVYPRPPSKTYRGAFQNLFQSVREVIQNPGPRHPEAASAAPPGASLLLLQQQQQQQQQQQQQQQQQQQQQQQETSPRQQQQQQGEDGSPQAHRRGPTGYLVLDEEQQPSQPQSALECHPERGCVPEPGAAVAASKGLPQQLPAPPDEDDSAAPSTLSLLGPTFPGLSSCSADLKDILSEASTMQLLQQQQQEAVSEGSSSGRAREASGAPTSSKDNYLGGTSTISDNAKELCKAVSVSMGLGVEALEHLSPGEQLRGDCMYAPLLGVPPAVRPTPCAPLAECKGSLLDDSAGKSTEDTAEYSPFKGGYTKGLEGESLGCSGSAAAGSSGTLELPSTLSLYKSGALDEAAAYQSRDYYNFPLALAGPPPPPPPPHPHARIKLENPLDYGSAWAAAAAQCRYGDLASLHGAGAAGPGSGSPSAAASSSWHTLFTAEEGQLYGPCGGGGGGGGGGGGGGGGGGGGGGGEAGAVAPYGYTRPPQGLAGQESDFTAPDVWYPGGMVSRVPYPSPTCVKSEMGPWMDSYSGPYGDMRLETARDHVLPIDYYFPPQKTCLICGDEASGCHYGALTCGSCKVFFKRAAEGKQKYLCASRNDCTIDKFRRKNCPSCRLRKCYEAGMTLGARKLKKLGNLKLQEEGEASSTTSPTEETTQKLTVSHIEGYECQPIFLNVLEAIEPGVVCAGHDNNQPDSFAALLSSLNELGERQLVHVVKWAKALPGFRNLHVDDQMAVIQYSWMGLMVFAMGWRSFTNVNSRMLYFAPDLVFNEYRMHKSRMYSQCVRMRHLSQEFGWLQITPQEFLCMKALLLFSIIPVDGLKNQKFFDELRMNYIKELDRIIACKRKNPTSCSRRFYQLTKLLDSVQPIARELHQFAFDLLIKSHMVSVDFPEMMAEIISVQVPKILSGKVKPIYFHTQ
Sequence (Q96SW2 whole entry partner): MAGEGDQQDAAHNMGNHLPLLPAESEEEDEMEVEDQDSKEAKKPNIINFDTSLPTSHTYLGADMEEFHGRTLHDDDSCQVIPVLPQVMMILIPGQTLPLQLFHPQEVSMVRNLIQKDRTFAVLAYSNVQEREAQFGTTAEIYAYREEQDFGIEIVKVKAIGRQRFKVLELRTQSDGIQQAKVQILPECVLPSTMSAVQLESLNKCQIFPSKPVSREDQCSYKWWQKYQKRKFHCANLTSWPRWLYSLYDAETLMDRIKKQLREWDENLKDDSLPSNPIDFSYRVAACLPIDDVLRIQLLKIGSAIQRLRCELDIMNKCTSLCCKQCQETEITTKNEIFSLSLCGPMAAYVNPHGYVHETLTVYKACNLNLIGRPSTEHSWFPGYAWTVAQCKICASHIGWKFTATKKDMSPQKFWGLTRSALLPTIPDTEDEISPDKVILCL
Each entry below carries its reported DC50.

Worked set:
Compound: CCn1c2c(c3ccc(N4CCN(CC5CCN(c6ccc(C(=O)N[C@H]7C(C)(C)[C@@H](Oc8ccc(C#N)c(Cl)c8)C7(C)C)cc6)CC5)CC4)cc31)C(=O)N(C1CCC(=O)NC1=O)C2=O (stereo partly drawn)
Observed Value: > 100 nM
--
Compound: CCn1c2c(c3ccc(N4CCN(CC5CCN(c6ccc(C(=O)N[C@H]7CC[C@H](Oc8ccc(C#N)c(Cl)c8)CC7)nn6)C5)CC4)cc31)C(=O)N(C1CCC(=O)NC1=O)C2=O (stereo partly drawn)
Observed Value: 10 to 25 nM
--
Compound: CCn1c2c(c3ccc(N4CCN(CC5CCN(c6ccc(C(=O)N[C@H]7C(C)(C)[C@@H](Oc8ccc(C#N)c(Cl)c8)C7(C)C)nn6)CC5)CC4)cc31)C(=O)N(C1CCC(=O)NC1=O)C2=O (stereo partly drawn)
Observed Value: 25 to 100 nM
--
Compound: CCn1c2c(c3ccc(N4CCN(CC5CCN(c6ncc(C(=O)N[C@H]7CC[C@@H](Oc8ccc(C#N)c(Cl)c8)CC7)cn6)CC5)CC4)cc31)C(=O)N(C1CCC(=O)NC1=O)C2=O (stereo partly drawn)
Observed Value: > 100 nM
--
Compound: CCn1c2c(c3ccc(N4CCN(CC5CCN(c6ccc(C(=O)N[C@H]7CC[C@H](Oc8ccc(C#N)c(Cl)c8)CC7)nn6)CC5)CC4)cc31)C(=O)N(C1CCC(=O)NC1=O)C2=O (stereo partly drawn)
Observed Value: 10 to 25 nM

Recorded DC50 for CCn1c2c(c3ccc(N4CCC(CN5CCC(c6ccc(C(=O)N[C@H]7CC[C@H](Oc8ccc(C#N)c(Cl)c8)CC7)nn6)CC5)CC4)cc31)C(=O)N(C1CCC(=O)NC1=O)C2=O (stereo partly drawn) , please?
10 to 25 nM

Try CCn1c2c(c3ccc(N4CCC5(CC4)CN(CC4CCN(c6ccc(C(=O)N[C@H]7CC[C@H](Oc8ccc(C#N)c(Cl)c8)CC7)nn6)CC4)C5)cc31)C(=O)N(C1CCC(=O)NC1=O)C2=O (stereo partly drawn) next.
< 10 nM

Also check CCn1c2c(c3ccc(N4CCN(CC5CCN(c6ccc(C(=O)N[C@H]7C(C)(C)[C@H](Oc8ccc(C#N)c(Cl)c8)C7(C)C)cn6)CC5)CC4)cc31)C(=O)N(C1CCC(=O)NC1=O)C2=O (stereo partly drawn)
25 to 100 nM

What do we get for CCn1c2c(c3ccc(N4CCN(CC5CCN(c6ccc(C(=O)N[C@H]7CC[C@H](Oc8ccc(C#N)c(Cl)c8)CC7)cn6)CC5)CC4)cc31)C(=O)N(C1CCC(=O)NC1=O)C2=O (stereo partly drawn) ?
25 to 100 nM

====

target: androgen receptor (Homo sapiens, UniProt P10275, T878A); construct: Several compounds were selected and serial diluted (10×) with RPMI medium for treating LNCaP.FGC cells; host or cells: LNCaP.FGC; test: Androgen receptor degradation assay using Western blot analysis in LNCaP.FGC cells; assay type: cell-based; conditions: read-out: AR DC50, concentration needed for 50% AR degradation, 24 hr treatment
Property Label: DC50

Worked set:
Molecule: CCn1c2c(c3ccc(C4CCN(CC5CCN(c6ccc(C(=O)N[C@H]7CC[C@H](Oc8ccc(C#N)c(Cl)c8)CC7)nn6)CC5)CC4)cc31)C(=O)N(C1CCC(=O)NC1=O)C2=O (stereo partly shown)
DC50: < 10 nM

Molecule: CCn1c2c(c3ccc(N4CCN(CC5CCN(c6ccc(C(=O)N[C@H]7CC[C@H](Oc8ccc(C#N)c(Cl)c8)CC7)nn6)CC5)CC4)cc31)C(=O)N([C@H]1CCC(=O)NC1=O)C2=O
DC50: 10 to 25 nM

Molecule: CCn1c2c(c3ccc(N4CCN(CC5CCN(c6ccc(C(=O)N[C@H]7CC[C@@H](Oc8ccc(C#N)c(Cl)c8)CC7)nn6)CC5)CC4)cc31)C(=O)N([C@H]1CCC(=O)NC1=O)C2=O
DC50: 10 to 25 nM

So what DC50 did CCn1c2c(c3ccc(C4CCN(CC5CCN(c6ccc(C(=O)N[C@H]7CC[C@@H](Oc8ccc(C#N)c(Cl)c8)CC7)nn6)CC5)CC4)cc31)C(=O)N(C1CCC(=O)NC1=O)C2=O (stereo partly shown) get with androgen receptor (Homo sapiens, UniProt P10275, T878A)?
10 to 25 nM

And CCn1c2c(c3ccc(N4CCN(CC5CCN(c6ncc(C(=O)N[C@H]7CC[C@H](Oc8ccc(C#N)c(Cl)c8)CC7)cn6)CC5)CC4)cc31)C(=O)N(C1CCC(=O)NC1=O)C2=O (stereo partly shown) ?
10 to 25 nM

Next molecule up: CCn1c2c(c3ccc(N4CCN(CC5CCN(c6ccc(C(=O)N[C@H]7C(C)(C)[C@@H](Oc8ccc(C#N)c(Cl)c8)C7(C)C)cn6)CC5)CC4)cc31)C(=O)N(C1CCC(=O)NC1=O)C2=O (stereo partly shown)
25 to 100 nM

Note, next up: CCn1c2c(c3ccc(N4CCN(CC5CCN(c6ccc(C(=O)N[C@H]7CC[C@@H](Oc8ccc(C#N)c(Cl)c8)CC7)nn6)CC5)CC4)cc31)C(=O)N(C1CCC(=O)NC1=O)C2=O (stereo partly shown)
< 10 nM

Thanks! And CCn1c2c(c3ccc(C4CCN(CC5CCN(c6ccc(C(=O)N[C@H]7C(C)(C)[C@H](Oc8ccc(C#N)c(Cl)c8)C7(C)C)cc6)CC5)CC4)cc31)C(=O)N(C1CCC(=O)NC1=O)C2=O (stereo partly shown) ?
25 to 100 nM

What would you report for CCn1c2c(c3ccc(N4CCN(CC5CCN(c6ccc(C(=O)N[C@H]7C(C)(C)[C@H](Oc8ccc(C#N)c(Cl)c8)C7(C)C)nn6)CC5)CC4)cc31)C(=O)N(C1CCC(=O)NC1=O)C2=O (stereo partly shown) ?
25 to 100 nM

Repeat with CCn1c2c(c3ccc(C4CCN(CC5CN(c6ccc(C(=O)N[C@H]7CC[C@H](Oc8ccc(C#N)c(Cl)c8)CC7)nn6)C5)CC4)cc31)C(=O)N(C1CCC(=O)NC1=O)C2=O (stereo partly shown)
< 10 nM
